Target: thrombin (Homo sapiens (Human), UniProt P00734)
Assay: Thrombin-inhibitory activity in plasma samples (ecarin-activated)
Format: biochemical
Details: citrate plasma, prothrombinase activated by ecarin, fluorogenic thrombin substrate; in some cases means; read-out: IC50 [nM] thrombin inhibition in plasma samples
measure: log10(IC50) (log10 of the value in nM)
// units: nM (pre-log); metric: IC50; scale: log10

Study these solved cases before continuing.
>  <molecule>
COc1cc(C(=O)N2CC(C)OC[C@@H]2CC(=O)O)cc2nc(NC(CF)c3cccc(Cl)c3)oc12 (single isomer, unassigned)

>  <measuredTarget>
thrombin (Homo sapiens (Human), UniProt P00734)

>  <log10(IC50)>
0.65

$$$$
>  <molecule>
COc1cc(C(=O)N2CC(C)OC[C@H]2C)cc2nc(NC(CF)c3cccc(Cl)c3)oc12 (single isomer, unassigned) [Example 7]

>  <measuredTarget>
thrombin (Homo sapiens (Human), UniProt P00734)

>  <log10(IC50)>
1.06

$$$$
>  <molecule>
CCO[C@@H]1CC(CO)N(C(=O)c2cc(OC)c3oc(NC(CF)c4cccc(Cl)c4)nc3c2)C1 (single isomer, unassigned) [Example 28]

>  <measuredTarget>
thrombin (Homo sapiens (Human), UniProt P00734)

>  <log10(IC50)>
1.75

$$$$
>  <molecule>
CCO[C@@H]1CC(CCO)N(C(=O)c2cc(OC)c3oc(NC(CF)c4cccc(Cl)c4)nc3c2)C1 (single isomer, unassigned) [Example 31]

>  <measuredTarget>
thrombin (Homo sapiens (Human), UniProt P00734)

>  <log10(IC50)>
0.70

$$$$
>  <molecule>
COc1cc(C(=O)N2CC3(CC3)NC(=O)C2C)cc2nc(NC(CF)c3cccc(Cl)c3)oc12 (stereo not drawn) [Example 32]

>  <measuredTarget>
thrombin (Homo sapiens (Human), UniProt P00734)

>  <log10(IC50)>
0.86

$$$$

# ---- query molecule ----
The recorded log10(IC50) for CCO[C@@H]1CC(CCO)N(C(=O)c2cc(OC)c3oc(NC(CF)c4cccc(Cl)c4)nc3c2)C1 (stereo partly drawn) [Example 29] is 1.18

###

Test system: plasma (prothrombin time)
Assay: Anticoagulatory activity: prothrombin time (PT) in plasma
Settings: 37° C., 3 minutes incubation, plasma species not given, in some cases means, read-out: IC50 [μM] (concentration of test substance which effects a doubling of the prothrombin time)
measure: IC50 (µM)
Field: numeric (µM). Do not append units.

>  <molecule>
COc1cc(C(=O)N2CC(C)OC[C@]23C[C@H](O)C3)cc2nc(NC(CF)c3cccc(Cl)c3)oc12 (stereo partly shown) [Example 21]

>  <IC50 (µM)>
1.3

$$$$
>  <molecule>
COc1cc(C(=O)N2CC3(CC3)NC(=O)C2C)cc2nc(NC(CF)c3cccc(Cl)c3)oc12 (single isomer, unassigned) [Example 33]

>  <IC50 (µM)>
0.8

$$$$
>  <molecule>
COc1cc(C(=O)N2CC(C)OCC2CCO)cc2nc(NC(CF)c3cccc(Cl)c3)oc12 (stereo not shown) [Example 13]

>  <IC50 (µM)>
1.4

$$$$
>  <molecule>
CCO[C@@H]1CC(CO)N(C(=O)c2cc(OC)c3oc(NC(CF)c4cccc(Cl)c4)nc3c2)C1 (single isomer, unassigned) [Example 27]

>  <IC50 (µM)>
1

$$$$

The recorded IC50 for COc1cc(C(=O)N2CC(C)OC[C@H]2C)cc2nc(NC(CF)c3cccc(Cl)c3)oc12 (single isomer, unassigned) [Example 7] is 1.9

The recorded IC50 for COc1cc(C(=O)N2CC(C)(C)OC[C@H]2CCO)cc2nc(NC(CF)c3cccc(Cl)c3)oc12 (stereo partly shown) [Example 25] is 1.1

The recorded IC50 for COc1cc(C(=O)N2CC(C)OC[C@@H]2CCO)cc2nc(NC(CF)c3cccc(Cl)c3)oc12 (single isomer, unassigned) [Example 15] is 1.1
